Field: IC50. Provide a value for each of the compounds that follow.
Target: EGFR (human) (UniProt P00533)
Sequence (P00533 whole entry, looked up): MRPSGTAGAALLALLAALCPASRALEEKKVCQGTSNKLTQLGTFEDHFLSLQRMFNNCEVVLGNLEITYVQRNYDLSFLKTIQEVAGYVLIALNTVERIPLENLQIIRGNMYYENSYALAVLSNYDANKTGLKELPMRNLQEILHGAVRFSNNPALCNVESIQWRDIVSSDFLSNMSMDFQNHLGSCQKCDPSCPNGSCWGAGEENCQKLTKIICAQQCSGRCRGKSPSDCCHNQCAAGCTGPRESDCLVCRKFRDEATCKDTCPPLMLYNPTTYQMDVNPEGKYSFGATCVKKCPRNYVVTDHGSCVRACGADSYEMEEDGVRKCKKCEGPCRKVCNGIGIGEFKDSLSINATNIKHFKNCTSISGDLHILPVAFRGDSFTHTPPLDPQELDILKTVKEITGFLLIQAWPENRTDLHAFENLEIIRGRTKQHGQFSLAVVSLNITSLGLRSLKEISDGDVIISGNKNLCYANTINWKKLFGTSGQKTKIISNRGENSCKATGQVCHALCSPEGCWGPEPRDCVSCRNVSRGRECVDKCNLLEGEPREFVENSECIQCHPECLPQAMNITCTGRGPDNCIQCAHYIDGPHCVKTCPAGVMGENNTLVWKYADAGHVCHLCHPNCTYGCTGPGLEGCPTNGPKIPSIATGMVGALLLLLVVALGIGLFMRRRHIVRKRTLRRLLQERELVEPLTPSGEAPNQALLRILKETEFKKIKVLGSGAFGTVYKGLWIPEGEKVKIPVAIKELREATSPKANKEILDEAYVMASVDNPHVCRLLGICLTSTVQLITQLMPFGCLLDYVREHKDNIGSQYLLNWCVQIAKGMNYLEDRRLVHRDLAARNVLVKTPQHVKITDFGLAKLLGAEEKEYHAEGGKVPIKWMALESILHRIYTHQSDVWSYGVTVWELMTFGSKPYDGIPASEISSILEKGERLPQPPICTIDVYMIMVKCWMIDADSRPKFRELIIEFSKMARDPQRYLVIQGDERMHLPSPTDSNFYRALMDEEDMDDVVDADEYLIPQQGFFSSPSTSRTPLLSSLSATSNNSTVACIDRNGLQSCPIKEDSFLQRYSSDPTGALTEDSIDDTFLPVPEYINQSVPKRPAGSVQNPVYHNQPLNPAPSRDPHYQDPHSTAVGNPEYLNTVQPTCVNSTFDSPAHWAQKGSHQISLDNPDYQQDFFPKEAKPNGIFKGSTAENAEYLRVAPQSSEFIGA
One number for each entry, in µM.

- Cc1ccc2c(c1)/C(=C/c1[nH]c(C)c(CCCN(C)C)c1C)C(=O)N2: 25.4

# evaluate next
Input line: Recorded IC50 for Cc1[nH]c(/C=C2\C(=O)Nc3ccccc32)c(C)c1CCCN(C)C , please?
Output line: 12.6

---

pIC50: −log10 of the molar value.
Lab note: pIC50 readings collected with EGFR (human) (UniProt P00533) for the following molecules.

Worked examples follow.
* Cc1ccc2c(c1)/C(=C/c1[nH]cc(CCC(=O)O)c1C)C(=O)N2 | < 4.30
* Cc1[nH]c(/C=C2\C(=O)Nc3cc(-c4ccccc4)ccc32)c(C)c1CCC(=O)O | 4.49
* Cc1[nH]c(/C=C2\C(=O)Nc3ccccc32)c(C)c1CCCN1CCOCC1 | < 4.30
* Cc1c(CCC(=O)O)c[nH]c1/C=C1\C(=O)Nc2cc(Br)ccc21 | < 4.30

Input line: Checklist item: pIC50 tested on EGFR (human) (UniProt P00533), entry Cc1cccc2c1/C(=C/c1[nH]cc(CCC(=O)O)c1C)C(=O)N2 , value?
Output line: < 4.30

---

Lab note: IC50 readings collected with EGFR (human) (UniProt P00533) for the following molecules.

Worked examples follow.
• Cc1[nH]c(/C=C2\C(=O)Nc3ccc(Cl)cc32)c(C)c1CCC(=O)O = > 50 µM
• Cc1c(CCC(=O)O)c[nH]c1/C=C1\C(=O)Nc2ccc(I)cc21 = > 50 µM

# evaluate next
Input line: Recorded IC50 for Cc1c(CCC(=O)O)c[nH]c1/C=C1\C(=O)Nc2ccccc21 , please?
Output line: > 50 µM
